The measured values listed here are drawn from patent US5763625A.

run description: Toxicity to unirradiated confluence-arrested U1-Mel cells
reported conditions: human
value kind: viability at 4 h, 2 µM (%)
Dear colleague, please return just the value in %, with no unit written.

Look up and report measured viability at 4 h, 2 µM for this entry: CC[C@@]1(O)C(=O)OCc2c1cc1n(c2=O)Cc2cc3c(CN(C)C)c(O)ccc3nc2-1 95

====

run description: in vitro
reported conditions: human, u1-mel cells
value kind: viability at 4 h, 4 µM (%)
Dear colleague, please return just the value in %, with no unit written.

Look up and report measured viability at 4 h, 4 µM for this entry: CC1(C)CCC2=C(O1)c1ccccc1C(=O)C2=O [β-lapachone] 79

====

run description: Toxicity to unirradiated confluence-arrested U1-Mel cells
reported conditions: human
value kind: viability at 4 h, 10 µM (%)
Dear colleague, please return just the value in %, with no unit written.

Look up and report measured viability at 4 h, 10 µM for this entry: CCC1(O)C(=O)OCc2c1cc1n(c2=O)Cc2cc3cc4c(cc3nc2-1)OCO4 (stereo not shown) [10,11-Methylonedioxy-] 62

====

run description: Toxicity to unirradiated confluence-arrested U1-Mel cells
reported conditions: human
value kind: viability at 4 h, 100 µM (%)
Dear colleague, please return just the value in %, with no unit written.

compound	value kind	value observed
CCC1(O)C(=O)OCc2c1cc1n(c2=O)Cc2cc3c(NC(=O)CN)cccc3nc2-1 (racemic) [9-Glycinamido-20(RS)-]	viability at 4 h, 100 µM	61

Now look at this one.
Look up and report measured viability at 4 h, 100 µM for this entry: CC[C@@]1(O)C(=O)OCc2c1cc1n(c2=O)Cc2cc3c(CN(C)C)c(O)ccc3nc2-1 [Topotecan] 63
